# tgt: CDK12 (aa686-1082)/Cyclin K complex (Homo sapiens, UniProt Q9NYV4)
# Construct: CDK12 (aa686-1082)/Cyclin K complex
# Sequence (Q9NYV4 686-1082, species assumed): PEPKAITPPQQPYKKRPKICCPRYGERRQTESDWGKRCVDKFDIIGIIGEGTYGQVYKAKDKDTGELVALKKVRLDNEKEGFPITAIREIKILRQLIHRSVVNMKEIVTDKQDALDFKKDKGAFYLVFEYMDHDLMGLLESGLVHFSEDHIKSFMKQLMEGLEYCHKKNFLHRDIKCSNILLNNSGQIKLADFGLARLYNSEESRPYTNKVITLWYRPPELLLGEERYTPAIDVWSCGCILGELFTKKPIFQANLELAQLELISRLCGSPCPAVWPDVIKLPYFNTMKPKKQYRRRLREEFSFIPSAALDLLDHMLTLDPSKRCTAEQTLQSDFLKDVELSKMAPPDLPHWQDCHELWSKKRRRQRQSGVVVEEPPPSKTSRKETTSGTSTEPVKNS
# Sequence (O75909 whole entry partner, species assumed, the tested form may be a part): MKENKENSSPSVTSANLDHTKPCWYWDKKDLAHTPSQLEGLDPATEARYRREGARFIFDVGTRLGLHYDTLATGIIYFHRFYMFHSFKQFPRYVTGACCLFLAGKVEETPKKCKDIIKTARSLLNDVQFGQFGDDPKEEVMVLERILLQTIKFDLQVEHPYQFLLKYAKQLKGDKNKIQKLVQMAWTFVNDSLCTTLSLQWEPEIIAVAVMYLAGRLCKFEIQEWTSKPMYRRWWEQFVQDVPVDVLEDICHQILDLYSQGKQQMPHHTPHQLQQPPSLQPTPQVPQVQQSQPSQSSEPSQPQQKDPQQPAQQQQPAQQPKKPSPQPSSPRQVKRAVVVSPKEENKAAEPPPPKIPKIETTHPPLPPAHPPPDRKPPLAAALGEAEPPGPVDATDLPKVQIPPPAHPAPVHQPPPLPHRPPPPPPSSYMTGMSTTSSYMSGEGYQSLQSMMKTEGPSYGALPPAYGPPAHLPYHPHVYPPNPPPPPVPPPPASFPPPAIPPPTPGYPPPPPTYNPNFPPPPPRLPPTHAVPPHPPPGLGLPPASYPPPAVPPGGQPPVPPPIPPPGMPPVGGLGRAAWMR
# measurement_protocol: CDK12 inhibition assay (Caliper/LabChip EZ Reader kinase assay)
# Format: biochemical
# applied_conditions: Table 1; CDK12 (aa686-1082)/Cyclin K 50 nM, ATP 2 mM, 3 hr at 27° C.; listed as 128
value_kind: IC50

INSERT INTO measurements (compound, tgt, value_kind, obs_value) VALUES
  ('N#Cc1ccc2c(-c3nc(N[C@@H]4CNC[C@@H](F)C4)ncc3C(F)(F)F)c[nH]c2c1 [Compound 368]', 'CDK12 (aa686-1082)/Cyclin K complex (Homo sapiens, UniProt Q9NYV4)', 'IC50', '> 5 µM');
